# Test Target: WT Spike (SARS-CoV2)
Collected pKd values appear next to each entry.
The read-out pKd is expressed as -log10 of concentration in moles per litre.

Answered examples (3):
Binder	pKd
RBD-R3-E1-B3 Ab (Ab_32) scFv-Fc (scFv, V domains shown) VH: QVQLVQSGAEVKKPGESLKISCKGSGYSFTSYWIGWVRQMPGKGLEWMGIIYPGDSDTRYSPSFQGQVTISADKSISTAYLQWSSLKASDTAMYYCARGWQWHDYWGQGTLVTVSS VL: QTVVTQEPAVSVALGQTVRITCQGDSLRSYYASWYQQKPGQAPVLVVYDKDKRPSGIPDRFSGSTSGNTASLTITGAQAEDEADYYCNSRDRSDNHVVFGGGTKLTVL	11.20
S1-RBD-R3-T1-C7 Ab (Ab_29) scFv-Fc (scFv, V domains shown) VH: QVQLQQSGPGLVKPSQTLSLTCAISGDSVSSYSDAWNWIRQSPSRGLEWLGRTYYRSKWYNDYAVSVKSRITINPDTSKNQFSLQLSSVTPEDTAVYYCAREIVATTPFRNYYYGMDVWGQGTTVTVSS VL: NFMLTQPHSVSESPGNTVTISCTRTSGSIASNYVQWYQQRPGSSPTTVIFQDKLRPSGVPDRFSGSIDSSSNSASLTISGLKTEDEADYYCQSYDSSSLWVFGGGTKLTVL	9.83
S1-R3-T1-C4 (Ab_8) scFv-Fc (scFv, V domains shown) VH: QVQLVQSGAEVKKPGSSVKVSCKASGGTFSSYAISWLRQAPGQGLEWMGWINPNSGGTNYAQKFQGRVTMTRDTSISTAYMELSRLRSDDTAVYYCARGSGGYYLGWGQGTLVTVSS VL: QPGLTQPPSVSKGLRQTATLTCTGNSNNVGNQGAAWLQQHQGHPPKLLSYMNNNRPPGISERFSASRSGNTASLTITGLQPEDEADYYCSAWDSSLSRWVFGGGTKLSVL	11.15

Challenge: Entry Ab_13 scFv-Fc (scFv, V domains shown) VH: QVTLKESGPKLVKPTQTLTLTCTFSGFSLSTSGVGVGWIRQPPGKALEWLALIYWDDDKRYSPSLKSRLTIAKDTSKYQVVLTMTNMDPVDTATYYCARISGSGYFYPFDIWGQGTMVTVSA VL: NFMLTQPHSVSESPGKTVTISCTRSSGSIASNYVQWYQQRPGSAPTTVIYEDNQRPSGVPDRFSGSIDSSSNSASLTISGLKTEDEADYYCQSYDSSNLWVFGGGTKLTVL has what pKd?
Response given: 11.07

Challenge: Item: Ab_25 scFv-Fc (scFv, V domains shown) VH: QVQLVQSGGGLVQPGGSLRLSCAASGFTFSSYWMSWVRQAPGKGLEWVANIKQDGSEKYYVDSVKGRFTISRDNAKNSLYLQMNSLRAEDTAVYYCARGFYYYGAFDIWGQGTTVTVSS VL: NFMLTQPHSVSESPGKTVTISCTGSSGSIASNYVQWYQQRPGSAPTTVIYEDNQRPSGVPDRFSGSIGSSSNSASLTISGLKTEDEADYYCQSYDSSNHWVFGGGTKLTVL
Response given: 11.05
